# System: Caco-2 cell monolayer
# Assay Remarks: Arginine absorption assay (transport across Caco-2 cell monolayer)
# Assay type: cell-based, human
# Cond: compound 0.01 μM; 10 mM L-arginine apical
# Procedure: To evaluate the effect of the isolated astragaloside compound on the uptake of nutrient substances across the intestinal lumen, Caco-2 cells were grown on permeable filter as an experimental model. […] These cells form monolayers with well-developed tight-junctions, and have been evaluated in details as an in vitro model to study both transcellular transport of nutrients and drugs in intestinal lumen. […]
Measured Metric: Transport rate (arginine) (nmol/min)
API: value field is a number in nmol/min; no unit string.

Check out these entries, answers already filled in.
CC(C)(O)[C@@H]1CC[C@](C)([C@H]2[C@@H](O)C[C@@]3(C)[C@@H]4C[C@H](O[C@@H]5O[C@H](CO)[C@@H](O)[C@H](O)[C@H]5O)[C@H]5C(C)(C)[C@@H](O[C@@H]6OC[C@@H](O)[C@H](O)[C@H]6O[C@@H]6O[C@H](CO)[C@@H](O)[C@H](O)[C@H]6O)CC[C@@]56C[C@@]46CC[C@]23C)O1 [AS6, astragaloside VI]: 13.9283
CC(C)(O)[C@@H]1CC[C@](C)([C@H]2[C@@H](O)C[C@@]3(C)[C@@H]4C[C@H](O)[C@H]5C(C)(C)[C@@H](O[C@@H]6OC[C@@H](O)[C@H](O)[C@H]6O[C@@H]6O[C@H](CO)[C@@H](O)[C@H](O)[C@H]6O)CC[C@@]56C[C@@]46CC[C@]23C)O1 [AS3, astragaloside III]: 13.0084
CC(C)(O)[C@@H]1CC[C@](C)([C@H]2[C@@H](O)C[C@@]3(C)[C@@H]4C[C@H](O[C@@H]5O[C@H](CO)[C@@H](O)[C@H](O)[C@H]5O)[C@H]5C(C)(C)[C@@H](O[C@@H]6OC[C@@H](O)[C@H](O)[C@H]6O)CC[C@@]56C[C@@]46CC[C@]23C)O1 [AS4, astragaloside IV]: 16.7245
CC(=O)O[C@H]1[C@H](O[C@H]2CC[C@]34C[C@]35CC[C@]3(C)[C@@H]([C@@]6(C)CC[C@@H](C(C)(C)O)O6)[C@@H](O)C[C@@]3(C)[C@@H]5C[C@H](O[C@@H]3O[C@H](CO)[C@@H](O)[C@H](O)[C@H]3O)[C@H]4C2(C)C)OC[C@@H](O)[C@@H]1O [AS2, astragaloside II]: 16.2358
CC(=O)O[C@@H]1[C@@H](O)[C@H](O[C@H]2CC[C@]34C[C@]35CC[C@]3(C)[C@@H]([C@@]6(C)CC[C@@H](C(C)(C)O)O6)[C@@H](O)C[C@@]3(C)[C@@H]5C[C@H](O[C@@H]3O[C@H](CO)[C@@H](O)[C@H](O)[C@H]3O)[C@H]4C2(C)C)OC[C@H]1O [IsoAS2, isoastragaloside II]: 14.7577

Reported Transport rate (arginine) for CC(=O)O[C@H]1[C@H](O[C@H]2CC[C@]34C[C@]35CC[C@]3(C)[C@@H]([C@@]6(C)CC[C@@H](C(C)(C)O)O6)[C@@H](O)C[C@@]3(C)[C@@H]5C[C@H](O[C@@H]3O[C@H](CO)[C@@H](O)[C@H](O)[C@H]3O)[C@H]4C2(C)C)OC[C@@H](OC(C)=O)[C@@H]1O [IsoAS1, isoastragaloside I] was 14.4776

Reported Transport rate (arginine) for CC(=O)OC1C(O)COC(OC2CCC34CC35CCC3(C)C(C6(C)CCC(C(C)(C)O)O6)C(O)CC3(C)C5CC(OC3OC(CO)C(O)C(O)C3O)C4C2(C)C)C1OC(C)=O (centres unmarked) [AS1, astragaloside I] was 16.2324

Reported Transport rate (arginine) for CC(C)(O)C1CC[C@](C)(C2[C@@H](O)C[C@@]3(C)C4C[C@H](OC5OC(CO)C(O)C(O)C5O)C5C(C)(C)[C@@H](O)CCC56CC46CC[C@]23C)O1 (stereo partly drawn) [AA, cycloastragenol 6-O-β-D-gluco-pyranose] was 21.3347
